- Organism: Rattus norvegicus
- testDescription: Open TG-GATES - Regimen: Single
- Assay type: toxicity, organism-based, Sprague-Dawley
- Design: regimen Single, gender Male, age 6 weeks
- conditionContext: in vivo, po, 0 mg/kg, 3 h, tissue Plasma, route gavage, dose level Control
readoutName: LDH (IU/L)
Numbers only, in IU/L.

Completed entries (count: 3):
molecule: COc1ccc([C@@H]2Sc3ccccc3N(CCN(C)C)C(=O)[C@@H]2OC(C)=O)cc1 [DILTIAZEM]
readoutName: LDH
measurementUnits: IU/L
experimentalValue: 79.2

molecule: CCCCNC(=O)NS(=O)(=O)c1ccc(C)cc1 [TOLBUTAMIDE]
readoutName: LDH
measurementUnits: IU/L
experimentalValue: 52.4

molecule: COc1cc2ncnc(Nc3ccc(F)c(Cl)c3)c2cc1OCCCN1CCOCC1 [GEFITINIB]
readoutName: LDH
measurementUnits: IU/L
experimentalValue: 183.2

Record LDH for all entries; do not skip any.
1. CCO [ALCOHOL]
2. C=C[C@H]1C[N@@]2CC[C@H]1C[C@@H]2[C@@H](O)c1ccnc2ccc(OC)cc12 [QUINIDINE]
3. CN(C)CCCN1c2ccccc2Sc2ccc(Cl)cc21 [CHLORPROMAZINE]
4. Nc1ccc(Cc2ccc(N)cc2)cc1
5. O=c1ccc2ccccc2o1 [COUMARIN]
6. CC(S)C(=O)NCC(=O)O (stereo not given) [TIOPRONIN]
7. CCN(CC)C(=S)SSC(=S)N(CC)CC

[103.2, 153, 227.2, 72.6, 76.6, 203.8, 236.6]

====

Field: MCH. Provide a value for each of the compounds that follow.
- Species: Rattus norvegicus
- testDescription: Open TG-GATES - Regimen: Daily Repeat
- Assay type: toxicity, organism-based, Sprague-Dawley
- Set-up: regimen Daily Repeat, gender Male, age 6 weeks
- conditionContext: in vivo, po, 300 mg/kg, […], tissue Blood, route gavage, dose level Middle, time 14 day
Numbers only, in pg.

compound: CC(S)C(=O)NCC(=O)O (centres undefined)
MCH, pg: 20.3
//
compound: CCCCNC(=O)NS(=O)(=O)c1ccc(C)cc1 [TOLBUTAMIDE]
MCH, pg: 19.6
//
compound: CC(=O)[C@@]1(O)CC[C@H]2[C@@H]3C=C(Cl)C4=CC(=O)CC[C@]4(C)[C@H]3CC[C@@]21C
MCH, pg: 19.3

Alright, here's another compound for you.
Entry under review: O=C(O)c1ccccc1Nc1ccccc1 . Reported MCH?
20.1

====

- Species on record: Rattus norvegicus
- testDescription: Open TG-GATES - Regimen: Daily Repeat
- Format: toxicity, organism-based, Sprague-Dawley
- Set-up: regimen Daily Repeat, gender Male, age 6 weeks
- conditionContext: in vivo, po, 100 mg/kg, 72 h, tissue Blood, route gavage, dose level Low, time 3 day
readoutName: Lym (%)
Give bare numbers, in %.

Recorded results for 3 compounds are shown here.
compound: CCCCNC(=O)NS(=O)(=O)c1ccc(C)cc1 [TOLBUTAMIDE]
Lym / %: 80.2
//
compound: O=C(O)c1ccccc1Nc1ccccc1
Lym / %: 79.6
//
compound: CC(=O)[C@@]1(O)CC[C@H]2[C@@H]3C=C(Cl)C4=CC(=O)CC[C@]4(C)[C@H]3CC[C@@]21C
Lym / %: 80.4

Please look at the following compound next.
Name the reported Lym value associated with the compound CC(S)C(=O)NCC(=O)O (centres undefined)
77.8

====

- Species on record: Rattus norvegicus
- testDescription: Open TG-GATES - Regimen: Daily Repeat
- Assay type: toxicity, organism-based, Sprague-Dawley
- Parameters: regimen Daily Repeat, gender Male, age 6 weeks
- conditionContext: in vivo, po, 1000 mg/kg, 72 h, tissue Plasma, route gavage, dose level High, time 3 day
readoutName: K (meq/L)
Give bare numbers, in meq/L.

Guide cases for K, answers given:
compound: CC(S)C(=O)NCC(=O)O (centres undefined) [TIOPRONIN]
measurementUnits: meq/L
K: 4.4
//
compound: O=C(O)c1ccccc1Nc1ccccc1 [FENAMIC ACID]
measurementUnits: meq/L
K: 4.4
//
compound: CC(=O)[C@@]1(O)CC[C@H]2[C@@H]3C=C(Cl)C4=CC(=O)CC[C@]4(C)[C@H]3CC[C@@]21C [CHLORMADINONE]
measurementUnits: meq/L
K: 4.8

Next item in the queue.
Requested field: K. Item: CCCCNC(=O)NS(=O)(=O)c1ccc(C)cc1 [TOLBUTAMIDE]
3.9

====

Could you please report measured A/G for the items listed next?
- Organism: Rattus norvegicus
- testDescription: Open TG-GATES - Regimen: Single
- Assay type: toxicity, organism-based, Sprague-Dawley
- Parameters: regimen Single, gender Male, age 6 weeks
- conditionContext: in vivo, po, 0 mg/kg, 6 h, tissue Plasma, route gavage, dose level Control
Answers are plain numbers.

The following compounds have reported results that may help.
compound: CN(CCOc1ccc(CC2SC(=O)NC2=O)cc1)c1ccccn1.O=C(O)/C=C\C(=O)O (centres undefined) [ROSIGLITAZONE MALEATE]
experimentalValue: 2.3

compound: CC(=O)[C@@]1(O)CC[C@H]2[C@@H]3C=C(Cl)C4=CC(=O)CC[C@]4(C)[C@H]3CC[C@@]21C
experimentalValue: 1.2

compound: CCCCNC(=O)NS(=O)(=O)c1ccc(C)cc1 [TOLBUTAMIDE]
experimentalValue: 0.9

compound: CC(S)C(=O)NCC(=O)O (centres undefined)
experimentalValue: 1.2

compound: O=C(O)c1ccccc1Nc1ccccc1
experimentalValue: 0.9

Each compound below has a reported value. Please supply its A/G.
1. O=c1ccc2ccccc2o1
2. CN(C/C=C/C#CC(C)(C)C)Cc1cccc2ccccc12
3. CCO
4. Nc1ccc(Cc2ccc(N)cc2)cc1

[2.1, 1.7, 2.4, 0.8]

====

So I've got a bunch of compounds here, and I need their CRE values.
- Species on record: Rattus norvegicus
- testDescription: Open TG-GATES - Regimen: Daily Repeat
- Format: toxicity, organism-based, Sprague-Dawley
- Set-up: regimen Daily Repeat, gender Male, age 6 weeks
- conditionContext: in vivo, po, 0 mg/kg, […], tissue Plasma, route gavage, dose level Control, time 28 day
Numbers only, in mg/dL.

compound: CC(=O)[C@@]1(O)CC[C@H]2[C@@H]3C=C(Cl)C4=CC(=O)CC[C@]4(C)[C@H]3CC[C@@]21C [CHLORMADINONE]
CRE [mg/dL]: 0.2

compound: CN(C/C=C/C#CC(C)(C)C)Cc1cccc2ccccc12 [TERBINAFINE]
CRE [mg/dL]: 0.5

compound: NS(=O)(=O)c1cc(C(=O)O)c(NCc2ccco2)cc1Cl [FUROSEMIDE]
CRE [mg/dL]: 0.2

Count: 7. Required value per item: CRE.
1. O=c1ccc2ccccc2o1 [COUMARIN]
2. CCN(CC)C(=S)SSC(=S)N(CC)CC
3. CC(S)C(=O)NCC(=O)O (stereo not drawn) [TIOPRONIN]
4. Nc1ccc(Cc2ccc(N)cc2)cc1
5. O=C(O)c1ccccc1Nc1ccccc1 [FENAMIC ACID]
6. CCCCC1C(=O)N(c2ccccc2)N(c2ccccc2)C1=O [PHENYLBUTAZONE]
7. CN(CCOc1ccc(CC2SC(=O)NC2=O)cc1)c1ccccn1.O=C(O)/C=C\C(=O)O (stereo not drawn) [ROSIGLITAZONE MALEATE]

1: 0.6; 2: 0.2; 3: 0.2; 4: 0.2; 5: 0.3; 6: 0.6; 7: 0.4

Items follow; give CRE for each.
1. CCO [ALCOHOL]
2. COc1ccc([C@@H]2Sc3ccccc3N(CCN(C)C)C(=O)[C@@H]2OC(C)=O)cc1 [DILTIAZEM]
3. CCCCNC(=O)NS(=O)(=O)c1ccc(C)cc1 [TOLBUTAMIDE]

0.6
0.3
0.3

====

- Organism: Rattus norvegicus
- testDescription: Open TG-GATES - Regimen: Daily Repeat
- Format: toxicity, organism-based, Sprague-Dawley
- Set-up: regimen Daily Repeat, gender Male, age 6 weeks
- conditionContext: in vivo, po, 1000 mg/kg, 72 h, tissue Plasma, route gavage, dose level High, time 3 day
readoutName: Ca
The answer consists of two parts: a number and, after it, its unit.

Past entries and their recorded results:
compound: CC(=O)[C@@]1(O)CC[C@H]2[C@@H]3C=C(Cl)C4=CC(=O)CC[C@]4(C)[C@H]3CC[C@@]21C
Ca: 11 mg/dL
//
compound: CCCCNC(=O)NS(=O)(=O)c1ccc(C)cc1 [TOLBUTAMIDE]
Ca: 11 mg/dL
//
compound: O=C(O)c1ccccc1Nc1ccccc1
Ca: 11.4 mg/dL

Which Ca value is on record for CC(S)C(=O)NCC(=O)O (centres undefined) ?
10.7 mg/dL

====

- Species on record: Rattus norvegicus
- testDescription: Open TG-GATES - Regimen: Daily Repeat
- Type: toxicity, organism-based, Sprague-Dawley
- Set-up: regimen Daily Repeat, gender Male, age 6 weeks
- conditionContext: in vivo, po, 0 mg/kg, […], route gavage, dose level Control, time 28 day
readoutName: TERMINAL_BW
Please answer in the form of a number followed by its unit of measurement.

molecule: CN(C/C=C/C#CC(C)(C)C)Cc1cccc2ccccc12 [TERBINAFINE]
TERMINAL_BW: 389.8 g
//
molecule: O=C(O)c1ccccc1Nc1ccccc1 [FENAMIC ACID]
TERMINAL_BW: 425.8 g
//
molecule: CN(CCOc1ccc(CC2SC(=O)NC2=O)cc1)c1ccccn1.O=C(O)/C=C\C(=O)O (stereo not drawn) [ROSIGLITAZONE MALEATE]
TERMINAL_BW: 412.9 g
//
molecule: COc1ccc([C@@H]2Sc3ccccc3N(CCN(C)C)C(=O)[C@@H]2OC(C)=O)cc1 [DILTIAZEM]
TERMINAL_BW: 411.3 g
//
molecule: Nc1ccc(Cc2ccc(N)cc2)cc1
TERMINAL_BW: 438.3 g
//
molecule: CCCCC1C(=O)N(c2ccccc2)N(c2ccccc2)C1=O [PHENYLBUTAZONE]
TERMINAL_BW: 373 g

For every item below, please supply its TERMINAL_BW.
1. O=c1ccc2ccccc2o1 [COUMARIN]
2. CC(=O)[C@@]1(O)CC[C@H]2[C@@H]3C=C(Cl)C4=CC(=O)CC[C@]4(C)[C@H]3CC[C@@]21C [CHLORMADINONE]
3. CCCCNC(=O)NS(=O)(=O)c1ccc(C)cc1 [TOLBUTAMIDE]
4. CC(S)C(=O)NCC(=O)O (stereo not drawn) [TIOPRONIN]
5. CCN(CC)C(=S)SSC(=S)N(CC)CC
6. CCO [ALCOHOL]
7. NS(=O)(=O)c1cc(C(=O)O)c(NCc2ccco2)cc1Cl [FUROSEMIDE]

["359.5 g", "410.9 g", "414.9 g", "385.3 g", "364.4 g", "359.3 g", "406.3 g"]
